Hey, just so you know, these numbers are from the supplement of paper PMC7877785.

TEST SUMMARY: self-splicing fitness, log relative to wild type (ln ratio); higher = more splicing; Tetrahymena group I intron in knt gene, E. coli kanamycin selection, DiMSum; sequences stand for … in CUCUCU…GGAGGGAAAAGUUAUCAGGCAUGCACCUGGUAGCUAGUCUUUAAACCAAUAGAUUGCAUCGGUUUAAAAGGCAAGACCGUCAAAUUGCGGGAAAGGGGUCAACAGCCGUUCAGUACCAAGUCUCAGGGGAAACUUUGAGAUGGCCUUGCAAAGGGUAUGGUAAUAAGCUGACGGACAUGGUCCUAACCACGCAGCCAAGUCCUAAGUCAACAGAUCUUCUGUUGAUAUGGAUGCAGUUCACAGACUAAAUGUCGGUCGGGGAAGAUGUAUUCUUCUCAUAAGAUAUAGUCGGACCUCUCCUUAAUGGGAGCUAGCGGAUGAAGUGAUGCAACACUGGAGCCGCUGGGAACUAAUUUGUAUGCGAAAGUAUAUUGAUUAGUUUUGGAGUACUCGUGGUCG;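 also: selection with 25 µg/mL kanamycin versus none on LB agar overnight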
CONDITION INFO: 37 °C
In this section we review reported self-splicing fitness (ln) values for a set of sequences.
When you answer, write just the number.

Illustrative cases are given below, each with its answer.
// lookup self-splicing fitness (ln) for `CGUGAGCAAUAUUACGGAUG`
-0.983

Consider next the sequence `UAGCAGCAAUAUUACGCAUA` in the same way.
-0.101

Consider next the sequence `CGGAAGCAAUAUUACGGUUU` in the same way.
-3.88

Consider next the sequence `GCCAAGCAAUAUUACGAAAC` in the same way.
-0.23

Consider next the sequence `UCACAGCAAUAUUACGGUUA` in the same way.
0.291

---
// lookup self-splicing fitness (ln) for `UCACAGCAAUAUUACGCAGA`
-2.16

Consider next the sequence `AAAGAGCAAUAUUACGGUAC` in the same way.
-2.57

Consider next the sequence `ACAGAGCAAUAUUACGGUGU` in the same way.
-3.02

Consider next the sequence `AUUAAGCAAUAUUACGAGUC` in the same way.
-3.29

Consider next the sequence `CCACAGCAAUAUUACGUAUC` in the same way.
-2

* * *

In this section we review reported self-splicing fitness (ln) values for a set of sequences.
TEST SUMMARY: self-splicing fitness, log relative to wild type (ln ratio); higher = more splicing; Tetrahymena group I intron in knt gene, E. coli kanamycin selection, DiMSum; sequences stand for … in CUCUCU…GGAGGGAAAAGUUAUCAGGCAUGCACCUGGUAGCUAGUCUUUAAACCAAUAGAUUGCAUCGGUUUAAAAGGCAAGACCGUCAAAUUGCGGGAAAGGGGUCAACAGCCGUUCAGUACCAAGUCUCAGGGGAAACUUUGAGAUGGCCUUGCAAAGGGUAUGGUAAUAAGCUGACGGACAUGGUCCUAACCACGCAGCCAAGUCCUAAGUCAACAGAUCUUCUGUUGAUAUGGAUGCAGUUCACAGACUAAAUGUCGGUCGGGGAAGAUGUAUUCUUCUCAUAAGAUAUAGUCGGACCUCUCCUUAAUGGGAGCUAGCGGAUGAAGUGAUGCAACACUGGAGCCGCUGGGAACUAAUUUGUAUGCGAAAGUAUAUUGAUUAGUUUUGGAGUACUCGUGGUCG
CONDITION INFO: 30 °C
When you answer, write just the number.

Illustrative cases are given below, each with its answer.
// lookup self-splicing fitness (ln) for `UGUGAGCAAUAUUACGCUGU`
-3.47

Consider next the sequence `UAUCAGCAAUAUUACGCCCA` in the same way.
0.297

---
// lookup self-splicing fitness (ln) for `CCGUAGCAAUAUUACGCUAA`
-3.32

Consider next the sequence `CAUGAGCAAUAUUACGGGUU` in the same way.
-3.04

Consider next the sequence `UACCAGCAAUAUUACGUAAU` in the same way.
-2.56

* * *

TEST SUMMARY: self-splicing fitness, log relative to wild type (ln ratio); higher = more splicing; Tetrahymena group I intron in knt gene, E. coli kanamycin selection, DiMSum; sequences stand for … in CUCUCU…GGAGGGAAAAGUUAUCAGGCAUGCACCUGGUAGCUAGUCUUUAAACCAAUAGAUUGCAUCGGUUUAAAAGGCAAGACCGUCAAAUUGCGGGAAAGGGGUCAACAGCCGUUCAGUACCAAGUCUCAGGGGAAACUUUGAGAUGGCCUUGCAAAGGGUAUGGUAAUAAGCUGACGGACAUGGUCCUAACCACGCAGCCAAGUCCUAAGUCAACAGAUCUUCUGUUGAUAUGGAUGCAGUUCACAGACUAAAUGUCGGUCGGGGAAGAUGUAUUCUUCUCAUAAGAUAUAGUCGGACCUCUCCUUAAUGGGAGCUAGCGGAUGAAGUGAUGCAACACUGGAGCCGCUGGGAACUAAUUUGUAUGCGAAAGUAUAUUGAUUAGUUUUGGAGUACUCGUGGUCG
CONDITION INFO: 30 °C
In this section we review reported self-splicing fitness (ln) values for a set of sequences.
When you answer, write just the number.

Illustrative cases are given below, each with its answer.
// lookup self-splicing fitness (ln) for `UUGUAGCAAUAUUACGAUCA`
-0.608

Consider next the sequence `UAACAGCAAUAUUACGCCUU` in the same way.
-1.48

API: the following record is the query input.
// lookup self-splicing fitness (ln) for `GAAUAGCAAUAUUACGUUUA`
-1.79

* * *

TEST SUMMARY: self-splicing fitness, log relative to wild type (ln ratio); higher = more splicing; Tetrahymena group I intron in knt gene, E. coli kanamycin selection, DiMSum; sequences stand for … in CUCUCU…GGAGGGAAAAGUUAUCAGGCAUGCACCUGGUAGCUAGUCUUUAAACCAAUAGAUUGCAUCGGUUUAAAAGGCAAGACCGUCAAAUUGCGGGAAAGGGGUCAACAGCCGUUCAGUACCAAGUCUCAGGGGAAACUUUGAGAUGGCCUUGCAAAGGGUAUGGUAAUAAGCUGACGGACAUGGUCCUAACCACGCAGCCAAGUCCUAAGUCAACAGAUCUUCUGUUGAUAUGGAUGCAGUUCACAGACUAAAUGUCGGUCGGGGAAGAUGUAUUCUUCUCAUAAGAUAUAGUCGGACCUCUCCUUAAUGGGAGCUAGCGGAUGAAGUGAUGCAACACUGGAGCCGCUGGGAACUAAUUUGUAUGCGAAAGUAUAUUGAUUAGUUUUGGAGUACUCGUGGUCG
CONDITION INFO: 37 °C
Each entry falls in a class defined on self-splicing fitness (ln); the bands are low group: < -2; middle group: ≥ -2 and < -0.5; high group: ≥ -0.5

Illustrative cases are given below, each with its answer.
Pick a category. Item: `GUCAAGCAAUAUUACGACAC`
high group

Consider next the sequence `AGUCAGCAAUAUUACGUGGC` in the same way.
low group

Consider next the sequence `GAAUAGCAAUAUUACGCUAA` in the same way.
middle group

Consider next the sequence `UGCUAGCAAUAUUACGAAAU` in the same way.
middle group

Consider next the sequence `UCCCAGCAAUAUUACGCACC` in the same way.
middle group

---
Pick a category. Item: `AAUGAGCAAUAUUACGUACC`
low group

Consider next the sequence `UUCCAGCAAUAUUACGCUAU` in the same way.
middle group

Consider next the sequence `GGCUAGCAAUAUUACGUGAG` in the same way.
high group

* * *

TEST SUMMARY: self-splicing fitness, log relative to wild type (ln ratio); higher = more splicing; Tetrahymena group I intron in knt gene, E. coli kanamycin selection, DiMSum; sequences stand for … in CUCUCU…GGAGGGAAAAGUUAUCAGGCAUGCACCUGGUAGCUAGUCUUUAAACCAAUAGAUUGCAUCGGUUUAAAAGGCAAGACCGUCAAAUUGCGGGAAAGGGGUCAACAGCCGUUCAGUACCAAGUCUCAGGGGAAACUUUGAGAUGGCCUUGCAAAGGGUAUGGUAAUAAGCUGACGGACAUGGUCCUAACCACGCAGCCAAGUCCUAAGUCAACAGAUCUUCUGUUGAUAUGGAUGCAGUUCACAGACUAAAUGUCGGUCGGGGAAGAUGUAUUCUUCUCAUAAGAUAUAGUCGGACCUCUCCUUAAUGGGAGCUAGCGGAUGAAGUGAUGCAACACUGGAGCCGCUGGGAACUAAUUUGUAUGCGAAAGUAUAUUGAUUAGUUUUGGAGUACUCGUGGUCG
CONDITION INFO: 30 °C
Lab note: anything with self-splicing fitness (ln) at or over -3 counts as 1; the rest go in -1.

Illustrative cases are given below, each with its answer.
Does the sequence `ACGGAGCAAUAUUACGACUU` have recorded self-splicing fitness (ln) that is -3 or more?
1

Consider next the sequence `UUUAAGCAAUAUUACGCCGA` in the same way.
1

---
Does the sequence `ACAUAGCAAUAUUACGCAGU` have recorded self-splicing fitness (ln) that is -3 or more?
-1

Consider next the sequence `GCCUAGCAAUAUUACGGCAG` in the same way.
1
